Here the recorded apparent KD of MS2 coat protein is given for each entry.
Test system: MS2 coat protein
PROTOCOL_TEXT: apparent KD of MS2 coat protein; designed switch direction (-1 OFF switch, 1 ON switch): -1; higher = weaker reporter binding
MEASUREMENT_CONDITIONS: input ligand: microRNA oligo, concentration not stated
Give the number; nM is assumed, so skip it.

Look over these answered cases.
AAUUAUUUUUGAGGAUAUGGUGGUGAAACACCACCAGAAGGCGAAAUAAACAUGAGGAUCACCCAUGUGAGCCUGAUGCUUAUG [Ex NG1 #48] (Eterna round: R96, puzzle: Exclusion NG 1): 19.9
CGACCCAUCAUAGGAUAUCACAGCACGGGAGAAAGUCUGAGGCGUCAACAUGAGGAUCACCCAUGUGAGAAGGAUGGUGGGCAG [Eternabot solution 17] (Eterna round: R96, puzzle: Exclusion NG 2): 184

Now take the following sequence into account.
I'd like to know its apparent KD of MS2 coat protein. The sequence in question is ACAUGUCAUCGAGGAUAUUGGACACAUGAGGAUCACCCAUGUACUCGGAUGCUCUAGCAUGAGUUCGAGAAGGCGAUGUACAUU [Ex NG2 #79] (Eterna round: R96, puzzle: Exclusion NG 2)
234
